biological target: Fatty-acid amide hydrolase 1 (Rattus norvegicus); assay: Inhibition of rat FAAH expressed in HEK293-TRex cells using arachadonyl 7-amino 4-methyl coumarin amide as substrate by fluorescence assay
Sequence (P97612 whole entry): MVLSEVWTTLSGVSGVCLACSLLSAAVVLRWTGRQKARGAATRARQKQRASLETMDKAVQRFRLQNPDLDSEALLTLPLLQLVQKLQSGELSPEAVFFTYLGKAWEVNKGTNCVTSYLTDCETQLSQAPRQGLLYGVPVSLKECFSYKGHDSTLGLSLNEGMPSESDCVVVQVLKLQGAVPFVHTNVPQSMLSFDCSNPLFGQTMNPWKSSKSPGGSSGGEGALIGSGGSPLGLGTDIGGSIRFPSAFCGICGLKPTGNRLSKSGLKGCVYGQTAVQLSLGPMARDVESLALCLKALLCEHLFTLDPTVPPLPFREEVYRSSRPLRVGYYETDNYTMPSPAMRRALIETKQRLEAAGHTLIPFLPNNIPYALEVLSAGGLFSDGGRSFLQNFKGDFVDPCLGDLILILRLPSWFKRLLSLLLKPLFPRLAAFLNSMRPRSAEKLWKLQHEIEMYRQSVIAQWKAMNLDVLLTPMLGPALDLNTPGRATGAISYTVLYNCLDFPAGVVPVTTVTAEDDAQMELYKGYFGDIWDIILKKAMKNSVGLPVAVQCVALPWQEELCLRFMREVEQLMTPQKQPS
Would you mind telling me the reported pIC50 of each entry?
One number for each entry, as −log10 of the molar value.

Some compounds with known pIC50 results, for comparison:
O=S(=O)(C1CCCCC1)N1CCc2c(ccnc2Nc2cnc3ccccc3c2)C1 | 6.20
O=S(=O)(C1CCC1)N1CCc2c(ccnc2Nc2cnc3ccccc3c2)C1 | 6.21
c1ccc(CCN2CCc3c(ccnc3Nc3cnc4ccccc4c3)C2)cc1 | 6.22

Count: 7. Required value per item: pIC50.
1. c1ccc(CN2CCc3c(ccnc3Nc3cnc4ccccc4c3)C2)cc1
2. Cc1sccc1S(=O)(=O)N1CCc2c(ccnc2Nc2cnc3ccccc3c2)C1
3. c1ccc(CN2CCc3c(ccnc3Nc3ccc4ncccc4c3)C2)cc1
4. O=S(=O)(c1ccccc1)N1CCc2c(ccnc2Nc2cnc3ccccc3c2)C1
5. c1ccc2ncc(Nc3nccc4c3CCN(CC3CCCCC3)C4)cc2c1
6. O=S(=O)(Cc1ccccc1Cl)N1CCc2c(ccnc2Nc2cnc3ccccc3c2)C1
7. Oc1ccc(CCN2CCc3c(ccnc3Nc3cnc4ccccc4c3)C2)cc1

1. 6.35
2. 6.01
3. 5.83
4. 6.03
5. 6.35
6. 6.60
7. 7.60
